# measured.on: NaDC3 (Homo sapiens)
# Sequence (Q8WWT9 whole entry): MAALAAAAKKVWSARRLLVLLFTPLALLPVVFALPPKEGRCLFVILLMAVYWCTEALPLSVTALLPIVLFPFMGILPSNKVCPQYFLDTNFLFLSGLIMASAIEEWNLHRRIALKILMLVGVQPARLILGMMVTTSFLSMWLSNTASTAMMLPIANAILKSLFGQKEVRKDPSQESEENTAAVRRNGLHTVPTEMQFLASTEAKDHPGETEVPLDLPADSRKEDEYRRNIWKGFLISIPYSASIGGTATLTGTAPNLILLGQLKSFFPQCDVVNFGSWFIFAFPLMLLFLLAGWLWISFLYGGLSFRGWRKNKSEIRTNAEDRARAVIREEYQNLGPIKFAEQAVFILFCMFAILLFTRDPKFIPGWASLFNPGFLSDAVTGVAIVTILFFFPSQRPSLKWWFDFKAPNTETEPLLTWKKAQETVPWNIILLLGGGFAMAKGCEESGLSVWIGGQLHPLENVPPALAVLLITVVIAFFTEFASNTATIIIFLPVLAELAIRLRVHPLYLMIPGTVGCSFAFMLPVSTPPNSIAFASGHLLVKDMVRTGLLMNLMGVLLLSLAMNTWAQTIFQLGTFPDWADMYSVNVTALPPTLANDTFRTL
# assay.notes: biochemical
quantity: Kd (µM)
Report only the number, with the unit µM understood.

Please fill in: Kd reported for O=C(O)CCC(=O)O [Succ, succinate] = 17.6
